Let's look at some compounds and their measured melting point.

[
  {
    "compound": "COC(=O)CCC(C)C1CCC2C3CC=C4CC(OC(C)=O)CCC4(C)C3CCC12C (stereo not drawn)",
    "melting point": "152 °C"
  },
  {
    "compound": "Cc1ccc(S(=O)(=O)OCCc2nc(-c3cccc(Br)c3)oc2C)cc1",
    "melting point": "107 to 109 °C"
  },
  {
    "compound": "Cc1cc2c(cc1-c1cc(C=C3SC(=O)NC3=O)ccc1OC(F)(F)F)N(C)C(=O)CC2(C)C",
    "melting point": "182 to 184 °C"
  },
  {
    "compound": "COc1ccc(CCCOCCn2cnc3c(N)nc4ccccc4c32)cc1",
    "melting point": "116 to 118 °C"
  },
  {
    "compound": "CC(=O)Nc1cccc(Nc2ncnc3[nH]cc(C(=O)c4cccc(F)c4)c23)c1",
    "melting point": "> 300 °C"
  },
  {
    "compound": "COc1cc2nc(N)nc(-c3ccc(C)c(Br)c3Br)c2cc1OC",
    "melting point": "233 to 236 °C"
  },
  {
    "compound": "CCCC1(Br)Cc2c3c(c(C)c(C)c2C1=O)OC(C(=O)O)C3 (stereo not drawn)",
    "melting point": "78 °C"
  },
  {
    "compound": "Cc1nc(N)nc(N)c1CCCc1cc(Cl)c(Cl)cc1Cl",
    "melting point": "215 °C"
  },
  {
    "compound": "CN(CCO)c1nc(N)nc(-c2cc(Cl)ccc2Cl)n1",
    "melting point": "153 to 155 °C"
  },
  {
    "compound": "O=c1c(-c2cc[nH]n2)coc2ccccc12",
    "melting point": "141 to 142 °C"
  },
  {
    "compound": "O=C1NC(=O)N(CCc2ccc(Cl)cc2)C1O (stereo not drawn)",
    "melting point": "151 to 152 °C"
  },
  {
    "compound": "COC12CC(CCOC(=O)c3ccc[nH]3)CN(C)C1Cc1cn(C)c3cccc2c13 (stereo not drawn)",
    "melting point": "148 to 149 °C"
  },
  {
    "compound": "C/C(=C(\\C#N)C(N)=S)N1CCCN(c2ccc(F)c(Cl)c2)CC1",
    "melting point": "148 to 150 °C"
  },
  {
    "compound": "CN=C(NC#N)NCCSCc1ncccc1O",
    "melting point": "146 to 148 °C"
  },
  {
    "compound": "CCC(C)C(CO)NC(=O)CC(O)C(CC(C)C)NC(=O)C(Cc1cscn1)NC(=O)C(Cc1cccc2ccccc12)NC(=O)OCc1ccccc1 (mixture of isomers)",
    "melting point": "167 to 169 °C"
  },
  {
    "compound": "COc1ccn2nc(-c3ccc(F)cc3)c(-c3ccc(=O)n(C)n3)c2c1",
    "melting point": "221 to 222 °C"
  },
  {
    "compound": "COC1OC(=O)c2cccc([N+](=O)[O-])c21 (stereo not drawn)",
    "melting point": "115 to 118 °C"
  },
  {
    "compound": "Cc1cc(C)c2c(c1O)C(N)C(C1CCCCC1)C2 (stereo not drawn)",
    "melting point": "125 to 126 °C"
  },
  {
    "compound": "Cc1cc([N+](=O)[O-])ccc1N1CCN(C(=O)OC(C)(C)C)CC1",
    "melting point": "122 to 123 °C"
  },
  {
    "compound": "CC(C)(C)OC(=O)C(=[N+]=[N-])C(=O)CCl",
    "melting point": "40 to 41 °C"
  },
  {
    "compound": "O=C(NC1=NN(c2ccc(Cl)c(Cl)c2)CC1)C(F)(F)F",
    "melting point": "181 to 183 °C"
  },
  {
    "compound": "Cc1cc(C)c(S(=O)(=O)NC(CN2CCCc3cc(C)ccc32)C(F)(F)F)c(C)c1 (stereo not drawn)",
    "melting point": "143 to 144 °C"
  },
  {
    "compound": "CCCCCCCCC1C=CC(/C=C/c2ccc(C(=O)O)o2)=C2N=C3CCCCC3=C21 (stereo not drawn)",
    "melting point": "128 to 131 °C"
  },
  {
    "compound": "O=C(O)CCc1[nH]nc2c1CCCCC2",
    "melting point": "102 to 105 °C"
  },
  {
    "compound": "CCOC(=O)C(=O)CC(=O)/C=C/c1ccc(Cl)cc1",
    "melting point": "117 to 118 °C"
  },
  {
    "compound": "CCCCCCCCCCC1(CCCCCCCCCC)c2cc(C=O)ccc2-c2ccc(N(c3ccccc3)c3ccccc3)cc21",
    "melting point": "77 to 78.5 °C"
  },
  {
    "compound": "COc1ccc(CNc2c(C)c(C)c3c(c2C)C(c2ccc(C)cc2)C(C)(C)O3)cc1 (stereo not drawn)",
    "melting point": "97 to 98 °C"
  },
  {
    "compound": "CCOC(=O)Cc1sc(Sc2ccc(OC)nn2)nc1C",
    "melting point": "47 to 49 °C"
  },
  {
    "compound": "COc1cc(Nc2c(C#N)cnc3c2C=C2N=CN=C2C3)cc(OC)c1OC",
    "melting point": "> 260 °C"
  },
  {
    "compound": "CN1CCC(O)(c2ccccc2F)CC1",
    "melting point": "127 to 129 °C"
  },
  {
    "compound": "COc1cccc(CC(=O)O)c1OCCCc1cn(-c2ccc(C#N)cn2)nc1C(C)C",
    "melting point": "144 to 145 °C"
  },
  {
    "compound": "CCn1c(=O)c2[nH]c(/C=C/c3cccc([N+](=O)[O-])c3)nc2n(CC)c1=O",
    "melting point": "> 270 °C"
  },
  {
    "compound": "COc1cc2c(cc1OC)CN(CCc1cccc(NC(=O)c3cccc4c(=O)c5cccc(OC)c5[nH]c34)c1)CC2",
    "melting point": "152 °C"
  }
]
